Ref: patent US20240376222A1

Assay System: T1, muTfR extracellular domain (ECD), His-tagged (mouse, UniProt Q62351 89-763)
T1 construct: extracellular domain; Bought protein (Sino Biological); also called muTfR-His; muTfR ECD
T1 sequence (Q62351 89-763): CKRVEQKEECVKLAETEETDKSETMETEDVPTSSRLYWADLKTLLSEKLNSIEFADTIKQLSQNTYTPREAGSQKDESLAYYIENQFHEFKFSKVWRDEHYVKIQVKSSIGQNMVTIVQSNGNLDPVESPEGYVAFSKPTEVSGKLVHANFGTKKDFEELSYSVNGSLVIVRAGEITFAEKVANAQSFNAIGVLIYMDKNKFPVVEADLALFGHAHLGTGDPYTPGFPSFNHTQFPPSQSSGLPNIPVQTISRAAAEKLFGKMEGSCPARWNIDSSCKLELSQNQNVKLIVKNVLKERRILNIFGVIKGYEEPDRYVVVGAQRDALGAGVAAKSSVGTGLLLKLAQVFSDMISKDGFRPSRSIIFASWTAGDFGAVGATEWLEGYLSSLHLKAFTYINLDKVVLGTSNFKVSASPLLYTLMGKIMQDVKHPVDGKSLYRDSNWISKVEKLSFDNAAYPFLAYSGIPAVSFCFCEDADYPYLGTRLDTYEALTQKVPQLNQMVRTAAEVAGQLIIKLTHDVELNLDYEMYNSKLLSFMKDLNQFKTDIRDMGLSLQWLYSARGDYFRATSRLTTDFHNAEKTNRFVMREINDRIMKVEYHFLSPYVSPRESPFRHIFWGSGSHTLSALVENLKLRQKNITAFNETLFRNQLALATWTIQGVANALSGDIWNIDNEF
Procedure Summary: BLI (Octet), IgG on Protein A sensor, muTfR-ECD-His in solution, 1:1 global fit
Property: kon; scope: individual binders
Provide the reading as a plain figure in M⁻¹ s⁻¹.

Here's what some known entries look like.
Ab5 (antibody, V domains shown) VH: QVQLVESGGGLVQPGRSLRLSCAASGFTFDDYAMHWVRQAPGKGLEWVSGISWNSGSIGYADSVKGRFTISRDNAKNSLYLQMNSLRAEDTALYYCAKVSSQSGSVAGFDYWGQGTLVSVSS VL: QPVLTQPPSASGTPGQRVTISCSGSSSNIGANYVYWYQQLPGTAPKLLIYRNNQRPSGVPDRFSGSKSGTSASLAIGGLRSEDEADYYCAGWDDSLSGVLFGGGTKVTVL
52300
muTfR Ab4 (antibody, V domains shown, Biotinylated when used as the probe in the competition ELISA; the sites are not stated and the letters do not carry them., also called anti-muTfR Ab4; biotinylated Ab4) VH: EVQLVESGGGLVKPGGSLRLSCAASGFTFSWYTMNWVRQAPGKGLEWVSSISSSSSDMYYADSVKGRFTISRDNAKNSLYLQIDSLRAEDTAVYYCARAHYYDSTSLNHFYGMDVWGQGTTVTVSS VL: QSVLTQPPSVSVAPGKTARITCGGNNIGSRTVHWYQQRPGQAPMLVVSDDNDRPSGIPERFSGSNSGNTATLTITRVEAGDEADYYCQVWDSSSDHLVFGGGTQLTVL
77700
Ab42 (antibody, V domains shown) VH: QVQLVQSGAEVKKPGSSVKVSCKASGGTFSSYAISWVRQAPGQGLEWMGGIIPIFGTANYAQKFQGRVTITADESTSTAYMELSSLRSEDTAVYYCARGATRGMDVWGQGTLVTVSS VL: DIVMTQSPSSLSASVGDRVTITCRASQSISNFLNWYQQKPGKAPKLLIYAASSLQSGVPSRFSGSRSGTDFTLTISSLQPEDFATYYCQQSSSIPLTFGGGTKLEIK
62000

Proceed to the following item.
Record summary for Ab59 (antibody, V domains shown) VH: QVQLVESGGGVVQPGRSLRLSCAASGFTFSSYAMHWVRQAPGKGLEWVAVISYDGSNKYYADSVKGRFTISRDNSKNTLYLQMNSLRAEDTAVYYCARGGPYYDFWSDGMDVWGQGTMVTVSS VL: QSVLTQPHSVSESPGKTVTISCTRSSGSIASNYVQWYQQRPGSSPTTVIYEDNQRPSGVPDRFSGSIDSSSNSASLTISGLKTEDEADYYCQSYDSSNYVFGTGTKVTVL : reported kon = 74900
